System: VSV*ΔG(Luc)-S virus (SARS-CoV-2 spike, D614G)
Settings: read-out: EC50 Vero E6
The entries below come with measured EC50 values attached.

compound: Nc1ncnc2c1ncn2[C@@H]1O[C@H](CO)[C@@H](O)[C@@H]1O
target desc: VSV*ΔG(Luc)-S virus (SARS-CoV-2 spike, D614G)
relation qualifier: >
EC50 (µM): 100
//
compound: Cc1ccc(-c2cc(C(F)(F)F)nn2-c2ccc(S(N)(=O)=O)cc2)cc1
target desc: VSV*ΔG(Luc)-S virus (SARS-CoV-2 spike, D614G)
relation qualifier: =
EC50 (µM): 13
//
compound: O=c1c(O)c(-c2ccc(O)c(O)c2)oc2cc(O)cc(O)c12
target desc: VSV*ΔG(Luc)-S virus (SARS-CoV-2 spike, D614G)
relation qualifier: >
EC50 (µM): 100
//
compound: Cc1cc(O)c2c(=O)c3c(O)cc(O)c4c5c(O)cc(O)c6c(=O)c7c(O)cc(C)c8c1c2c(c34)c(c78)c65
target desc: VSV*ΔG(Luc)-S virus (SARS-CoV-2 spike, D614G)
relation qualifier: =
EC50 (µM): 1.24
//
compound: CC(C)C(=O)OCC(=O)[C@@]12O[C@H](C3CCCCC3)O[C@@H]1C[C@H]1[C@@H]3CCC4=CC(=O)C=C[C@]4(C)[C@H]3[C@@H](O)C[C@@]12C [Ciclesonide]
target desc: VSV*ΔG(Luc)-S virus (SARS-CoV-2 spike, D614G)
relation qualifier: =
EC50 (µM): 20.5
